Provide the reported aptazyme ON/OFF ratio of each item.
B1: Pistol ribozyme (parent)
chain: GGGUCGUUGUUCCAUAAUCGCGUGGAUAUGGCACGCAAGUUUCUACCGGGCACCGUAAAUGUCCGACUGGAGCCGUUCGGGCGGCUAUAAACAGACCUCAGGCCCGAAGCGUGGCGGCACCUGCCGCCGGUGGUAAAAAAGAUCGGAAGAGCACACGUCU

Variants of: B1
Assay: aptazyme ON/OFF ratio, guanine; higher = stronger switching; co-transcriptional cleavage with and without guanine
Output: the number by itself.

Lab note: U7A U8C G9A U10A U11A C12U C13U gave aptazyme ON/OFF ratio of 1.3

Lab note: U7G G9U U10C U11G C12G C13A gave aptazyme ON/OFF ratio of 1.13

Lab note: U7A U8C U10C U11C gave aptazyme ON/OFF ratio of 1.04

Lab note: U7G G9C U10A U11C C12G C13G gave aptazyme ON/OFF ratio of 1.06

Lab note: U7C G9C U11G C13A gave aptazyme ON/OFF ratio of 1.03

Lab note: G9U U10C U11G C12A gave aptazyme ON/OFF ratio of 1.13

Lab note: U7A G9C U10C U11A C12G gave aptazyme ON/OFF ratio of 1.1

Lab note: U7G U8C G9C U10A U11C C12G gave aptazyme ON/OFF ratio of 1.26

Lab note: U8C U10G U11C C12U gave aptazyme ON/OFF ratio of 1.21

Lab note: U8A U10G C12A C13A gave aptazyme ON/OFF ratio of 1.23

Lab note: U7A U8C G9A U10G C12U C13U gave aptazyme ON/OFF ratio of 1.39

Measured values drawn from the RNAGym collection of RNA variant scans (doi:10.1021/acssynbio.7b00057) for this set.
